Measured inhibition of SARS-CoV-2 cytopathic effect by item
Test system: Vero E6 infected with SARS-CoV-2
Method Description: inhibition of SARS-CoV-2 cytopathic effect; higher = more antiviral protection, active = above 15
Condition Info: 100 nM; 48 h
Lab book: enter the figure in %, no units written.

Solved entries:
{"Compound": "Cn1c(=O)[nH]c2ncn(C)c2c1=O", "Target Or Test System": "Vero E6 infected with SARS-CoV-2", "Readout Value": 0.01}
{"Compound": "COc1ccc(-c2ccc(=N)n(CCCC(=O)O)n2)cc1", "Target Or Test System": "Vero E6 infected with SARS-CoV-2", "Readout Value": 5.99}
{"Compound": "N#CC(c1ccnc(OCc2ccc(CN3CCOCC3)cc2)n1)c1nc2ccccc2s1 (stereo not given)", "Target Or Test System": "Vero E6 infected with SARS-CoV-2", "Readout Value": 1.92}

Prompt line: What value of inhibition of SARS-CoV-2 cytopathic effect has been reported for the following compound? C[C@@H]1CC[C@H]2C(C)(C)[C@H]3C[C@@]12CC[C@@]3(C)O
Response line: -1.28

Prompt line: What value of inhibition of SARS-CoV-2 cytopathic effect has been reported for the following compound? O=C(NCc1ccc2c(c1)OCO2)c1c(Cl)cccc1Cl
Response line: -2.66
